All values here come from ChEMBL document CHEMBL4184106.

# reported EC50; entries follow
test system: MDA-MB-231; experiment: Cytotoxicity against human MDA-MB-231 cells assessed as reduction in cell viability by MTT assay; type: functional, cell-based
quantity_name: EC50

# compound, test_target, quantity_name, value_measured
records = [
    ("C=C(c1ccc(C(=O)NCCN(CC)CC)cc1)c1cc2c(cc1C)C(C)(C)CCC2(C)C", "MDA-MB-231", "EC50", "< 10 µM"),
    ("C=C(c1ccc(C(=O)NCCN2CCCC2)cc1)c1cc2c(cc1C)C(C)(C)CCC2(C)C", "MDA-MB-231", "EC50", "< 10 µM"),
    ("C=C(c1ccc(C(=O)O)cc1)c1cc2c(cc1C)C(C)(C)CCC2(C)C [BEXAROTENE]", "MDA-MB-231", "EC50", "> 56 µM"),
]
